- testedOn: T1, biotinylated CD3 epsilon:delta heterodimer protein (Amsbio AMS.CDD-H52WO) (Homo sapiens (Human), UniProt P07766 23-126; P04234 22-105)
- T1 construct: also called CD3 heterodimer
- measurementDescription: BLI (Octet), CD3 on SA sensor, Fab analyte;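 also: biolayer interferometry with biotinylated CD3 epsilon:delta captured on streptavidin sensors, Fab analyte at several concentrations up to 300 nM, 100 s association then 300 s dissociation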
Threshold rule: koff greater than or equal to 0.04 s⁻¹ is Met; below that, Not met.

Hi, just wondering whether huSP34.4.1 Fab-HF (Fab, V domains shown, also called HC4+LC1) VH: EVQLVESGGGLVQPGGSLRLSCAASGFTFSTYAMNWVRQAPGKGLEWVGRIRSKYNNYATYYAASVKGRFTISRDDSKNSLYLQMNSLRTEDTAVYYCVRHGNFGHSYVSWFAVWGQGTLVTVSS VL: QAVVTQEPSLTVSPGGTVTLTCRSSTGAVTTSNYANWVQQKPGQAPRGLIGGTNKRAPWTPARFSGSLIGDKAALTLSGAQPEDEAEYYCALWYSNLWVFGGGTKLTVL shows koff of 0.04 s⁻¹ or higher.
Not met

Again, but for huSP34.5.2 Fab-HF (Fab, V domains shown, also called HC5+LC2) VH: EVQLVESGGGLVQPGGSLRLSCAASGFTFSTYAMNWVRQAPGKGLEWVGRIRSKYNNYATYYADSVKGRFTISRDNSKNTLYLQMNSLRAEDTAVYYCVRHGNFGHSYVSWFAVWGQGTLVTVSS VL: QAVVTQEPSLTVSPGGTVTLTCGSSTGAVTTSNYANWVQQKPGQAPRGLIGGTSNRAPWTPARFSGSLLGGKAALTLSGAQPEDEAEYYCALWYSNLWVFGGGTKLTVL
Met

Again, but for mSP34 Fab-HF (Fab, V domains shown, also called mSP34 chimeric Fab; mSP34 human chimeric Fab) VH: EVKLLESGGGLVQPKGSLKLSCAASGFTFNTYAMNWVRQAPGKGLEWVARIRSKYNNYATYYADSVKDRFTISRDDSQSILYLQMNNLKTEDTAMYYCVRHGNFGNSYVSWFAYWGQGTLVTVSA VL: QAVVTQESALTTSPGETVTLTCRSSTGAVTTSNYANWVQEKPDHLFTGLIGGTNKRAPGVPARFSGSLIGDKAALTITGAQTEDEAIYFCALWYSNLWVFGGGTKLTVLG
Not met

Again, but for huSP34.6.2 Fab-HF (Fab, V domains shown, also called HC6+LC2) VH: EVQLVESGGGLVQPGGSLRLSCAASGFTFSTYAMNWVRQAPGKGLEWVGRIRSKYNNYATYYADSVKGRFTISRDNSKNTLYLQMNSLRAEDTAMYYCVRHGNFGNSYVSWFAVWGQGTLVTVSS VL: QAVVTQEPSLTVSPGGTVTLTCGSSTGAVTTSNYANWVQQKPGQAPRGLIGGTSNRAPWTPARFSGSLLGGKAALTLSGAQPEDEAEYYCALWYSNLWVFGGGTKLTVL
Met

Again, but for huSP34.5.5 Fab-HF (Fab, V domains shown, also called HC5+LC5) VH: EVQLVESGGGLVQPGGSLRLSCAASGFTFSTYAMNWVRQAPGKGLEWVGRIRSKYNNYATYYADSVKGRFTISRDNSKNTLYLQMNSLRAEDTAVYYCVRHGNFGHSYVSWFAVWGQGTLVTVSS VL: QAVVTQEPSLTVSPGGTVTLTCGSSTGAVTTGHYANWVQQKPGQAPRGLIGGTSNRAPWTPARFSGSLLGGKAALTLSGAQPEDEAEYYCALWYSARWVFGGGTKLTVL
Met

Again, but for huSP34.4.6 Fab-HF (Fab, V domains shown, also called HC4+LC6) VH: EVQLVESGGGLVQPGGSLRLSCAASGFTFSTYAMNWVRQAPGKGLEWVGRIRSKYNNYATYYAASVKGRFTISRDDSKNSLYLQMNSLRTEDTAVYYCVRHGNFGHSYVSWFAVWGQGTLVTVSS VL: QAVVTQPPSLTVSPGGTVTLTCGSSTGAVTTGHYANWVQQKPGQAPRGLIGGTSNRAPGVPARFSGSLSGGKAALTISGAQPEDEAEYYCALWYSARWVFGGGTKLTVL
Not met

Again, but for huSP34.8.5 Fab-HF (Fab, V domains shown, also called HC8+LC5) VH: EVQLVESGGGLVQPGGSLRLSCAASGFTFSDYAMNWVRQAPGKGLEWVGRTRSKYNNYATYYAASVKGRFTISRDDSKNSLYLQMNSLKTEDTAVYYCVRHGNFGHSYVSWFAVWGQGTLVTVSS VL: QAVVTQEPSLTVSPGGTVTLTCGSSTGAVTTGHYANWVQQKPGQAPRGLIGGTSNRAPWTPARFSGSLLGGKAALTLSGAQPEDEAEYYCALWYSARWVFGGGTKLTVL
Met

Again, but for huSP34.6.1 Fab-HF (Fab, V domains shown, also called HC6+LC1) VH: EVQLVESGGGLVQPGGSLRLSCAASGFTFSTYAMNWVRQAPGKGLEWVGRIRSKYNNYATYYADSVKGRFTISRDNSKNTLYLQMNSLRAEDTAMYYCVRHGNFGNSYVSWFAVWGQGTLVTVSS VL: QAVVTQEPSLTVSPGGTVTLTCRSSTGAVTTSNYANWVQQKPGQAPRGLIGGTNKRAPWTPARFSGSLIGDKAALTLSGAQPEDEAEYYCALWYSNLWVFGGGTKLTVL
Not met

Again, but for huSP34.4.4 Fab-HF (Fab, V domains shown, also called HC4+LC4) VH: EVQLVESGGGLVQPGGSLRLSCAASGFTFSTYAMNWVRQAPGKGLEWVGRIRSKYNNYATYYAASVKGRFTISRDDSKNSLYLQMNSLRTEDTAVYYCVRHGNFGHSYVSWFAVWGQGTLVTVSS VL: QAVVTQEPSLTVSPGGTVTLTCGSSTGAVTTSHYANWVQQKPGQAPRGLIGGTSKRAPWTPARFSGSLLGGKAALTLSGAQPEDEAEYYCALWYSALWVFGGGTKLTVL
Met
